For each record, write down the corresponding Fold Change of Gigasomes Produced vs. DMSO.
# System: neuronal cell line derived from human neuroblastoma
# ASSAY_SUMMARY: Small molecule compound screen of gigasome production in neuronal monocultures
# TEST_PARAMETERS: neuronal cells, dose 10 nM, 24 hours

Completed entries (count: 4):
CN[C@H](CC(=O)O)C(=O)O [NMDA, reference compound] | 0.75-1.0
COC(=O)C1=C(C)NC(C)=C([N+](=O)[O-])C1c1ccccc1C(F)(F)F (centres unmarked) | 1.25-1.5
N#C/C(=C\c1cn(-c2ccccc2)c2ccccc12)C(=O)O [UK-5099, reference compound] | 0.5-0.75
CCCCc1ccc(NC(C)=O)c(C)c1 | >1.25

Pending molecule:
(Q) What does the data say about its Fold Change of Gigasomes Produced vs. DMSO? Entry: `C[C@H]1CCC/C=C/[C@@H]2C[C@H](O)C[C@H]2[C@H](O)/C=C/C(=O)O1`
(A) 1.5-1.75

---

# System: neuronal cell line derived from human neuroblastoma
# TEST_PARAMETERS: neuronal cells, dose 100 nM, 24 hours
VALUE_TYPE: Viability (%)
Numbers only, in %.

CCCn1cnc2c(NCc3ccc(C)s3)nc(N[C@H](CC)CO)nc21 [GV-58, reference compound] | 100
CN[C@H](CC(=O)O)C(=O)O [NMDA, reference compound] | 100

(Q) Quick one: Viability of N#C/C(=C\c1cn(-c2ccccc2)c2ccccc12)C(=O)O [UK-5099, reference compound] ?
(A) 100

---

For each of the compounds below, state its Number of Gigasomes Produced.
# System: cardiomyocytic cell line derived from human ventricular heart tissue
# ASSAY_SUMMARY: Small molecule compound screen of gigasome production in cardiomyocytic monocultures
# TEST_PARAMETERS: Table 23 (down-regulators); dose 100 nM; cardiomyocytes

Answered examples (3):
Cn1cnc(N)c2ncnc1-2 [Compound 3-Methyladenine, 3-Methyladenine] | >150
Fc1ccc(CNc2ncnc3ccc(F)cc23)cc1 [Spautin-1] | 120-135
COC(=O)C1=C(C)NC(C)=C([N+](=O)[O-])C1c1ccccc1C(F)(F)F (centres unmarked) [Bay K 8644] | 120-135

I would be grateful if you could provide Number of Gigasomes Produced for each of the following entries.
1. O=C(O)CC[N+](=O)[O-] [3-Nitropropanoic acid, reference compound]
2. CC(N)=NCc1cccc(CN)c1.Cl.Cl [1400W dihydrochloride]
3. O=C1CSC(c2ccccc2Cl)c2cc(Cl)ccc2N1 (centres unmarked) [CGP37157, reference compound]

(A)
["90-105", "90-105", "105-120"]

---

Assign Viability to each entry below.
# Test system: neuronal cell line derived from human neuroblastoma
# TEST_PARAMETERS: neuronal cells, dose 10000 nM, 24 hours

Some solved cases for reference:
O=C(Nc1ccc(O)c(C(=O)O)c1)c1cccc(NC(=O)c2ccco2)c1 | 100%
C=C(C)[C@@H]1CC[C@]2(CO)CC[C@]3(C)[C@H](CC[C@@H]4[C@@]5(C)CC[C@H](O)C(C)(C)[C@@H]5CC[C@]43C)[C@@H]12 | 100%
N#C/C(=C\c1cn(-c2ccccc2)c2ccccc12)C(=O)O [UK-5099, reference compound] | 100%
CCN(CCO)CCCC(C)Nc1ccnc2cc(Cl)ccc12 (stereo not shown) [Hydroxychloroquine] | >75%
CC[C@H](CO)Nc1nc(NCc2ccccc2)c2ncn(C(C)C)c2n1 | 100%

For each listed entry, give its Viability.
1. COC(=O)c1ccccc1NC(=O)c1ccc(F)cc1 [EXO1, reference compound]
2. CO/C1=C\C(C)=C\[C@@H](C)[C@@H](O)[C@@H](C)C/C(C)=C/C=C/[C@H](OC)[C@@H]([C@@H](C)[C@@H](O)[C@H](C)[C@@]2(O)C[C@@H](O)[C@H](C)[C@@H](C(C)C)O2)OC1=O [Bafilomycin A1, reference compound]

(A)
100%
>75%

---

# Test system: cardiomyocytic cell line derived from human ventricular heart tissue
# ASSAY_SUMMARY: Small molecule compound screen of gigasome production in cardiomyocytic monocultures
# TEST_PARAMETERS: Table 22; dose 1000 nM; cardiomyocytes, 24 hours
VALUE_TYPE: Fold Change of Gigasomes Produced vs. DMSO

Would you please look over these solved cases?
CCCCc1ccc(NC(C)=O)c(C)c1 | 1.0-1.25
COc1ccc(S(=O)(=O)N(CCO)c2ccccc2CN(C)C/C=C/c2ccc(Cl)cc2)cc1 [KN-93, reference compound] | 1.25-1.5
O=C(Nc1ccccc1-c1cn2c(CN3CCNCC3)csc2n1)c1cnc2ccccc2n1 | 1.0-1.25
CC1=C(O)C(=O)C=C2C1=CC=C1[C@@]2(C)CC[C@@]2(C)[C@@H]3C[C@](C)(C(=O)O)CC[C@]3(C)CC[C@]12C [Tripterin, reference compound] | 3.0-4.0

(Q) Look at this molecule and give its reported Fold Change of Gigasomes Produced vs. DMSO. CO/C1=C\C(C)=C\[C@@H](C)[C@@H](O)[C@@H](C)C/C(C)=C/C=C/[C@H](OC)[C@@H]([C@@H](C)[C@@H](O)[C@H](C)[C@@]2(O)C[C@@H](O)[C@H](C)[C@@H](C(C)C)O2)OC1=O [Bafilomycin A1, reference compound]
(A) 1.75-2.0

---

# Tested on: cardiomyocytic cell line derived from human ventricular heart tissue
# ASSAY_SUMMARY: Small molecule compound screen of gigasome production in cardiomyocytic monocultures
# TEST_PARAMETERS: Table 23 (down-regulators); dose 1000 nM; cardiomyocytes
VALUE_TYPE: Fold Change of Gigasomes Produced vs. DMSO

COC(=O)C1=C(C)NC(C)=C([N+](=O)[O-])C1c1ccccc1C(F)(F)F (centres unmarked) | 0.75-1.0
O=C(Oc1cccc(F)c1OC(=O)c1cccc(O)c1)c1cccc(O)c1 [WZB117, reference compound] | 0.75-1.0
Fc1ccc(CNc2ncnc3ccc(F)cc23)cc1 | 0.5-0.75
O=C1CSC(c2ccccc2Cl)c2cc(Cl)ccc2N1 (centres unmarked) [CGP37157, reference compound] | 0.25-0.5

Would you kindly look at the next entry?
(Q) Which value of Fold Change of Gigasomes Produced vs. DMSO has been reported for `CCCCCCCCCCCCCCOc1ccc(C(=O)O)o1` in the records?
(A) 0.75-1.0

---

Give measured Number of Gigasomes Produced for each item. Keep answers brief.
# System: cardiomyocytic cell line derived from human ventricular heart tissue
# ASSAY_SUMMARY: Small molecule compound screen of gigasome production in cardiomyocytic monocultures;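 also: gigasomes shed into the culture medium were imaged by confocal microscopy and counted as round particles lacking nuclear signal, extrapolated to the whole well, fold change is relative to DMSO vehicle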
# TEST_PARAMETERS: Table 23 (down-regulators); dose 10000 nM; cardiomyocytes

A selection of reference data follows.
COC(=O)C1=C(C)NC(C)=C([N+](=O)[O-])C1c1ccccc1C(F)(F)F (centres unmarked) | 75-90
CCCCCCCCCCCCCCOc1ccc(C(=O)O)o1 | 75-90
Fc1ccc(CNc2ncnc3ccc(F)cc23)cc1 | 75-90
Cn1cnc(N)c2ncnc1-2 | 90-105

Could you now look at the following compound, please?
(Q) State the recorded Number of Gigasomes Produced for this entry: O=C(O)CC[N+](=O)[O-] [3-Nitropropanoic acid, reference compound]
(A) 35-50

---

What Viability was measured for each of the following?
# System: neuronal cell line derived from human neuroblastoma
# TEST_PARAMETERS: human, 24 h, 10000 nM

For orientation, consider the following solved cases.
C=C(C)[C@@H]1CC[C@]2(C(=O)O)CC[C@]3(C)[C@H](CC[C@@H]4[C@@]5(C)CC[C@H](O)C(C)(C)[C@@H]5CC[C@]43C)[C@@H]12 [Betulinic acid] | 100%
CC1=NS(=O)(=O)c2cc(Cl)ccc2N1 [Diazoxide] | 100%
C/C=C1/[C@H](O[C@@H]2O[C@H](CO)[C@@H](O)[C@H](O)[C@H]2O)OC=C(C(=O)OC)[C@H]1CC(=O)OCCc1ccc(O)c(O)c1 [Oleuropein, reference compound] | 100%

(Q) Give the measured Viability of Nc1ccccc1NC(=O)c1ccc(CNC(=O)OCc2cccnc2)cc1 [Entinostat, reference compound] .
(A) >75%

---

Answer each item with its documented fold induction at 1 µM.
# Test system: neuronal cell line derived from human neuroblastoma
# ASSAY_SUMMARY: Small molecule compound screen of gigasome production in neuronal monocultures
# TEST_PARAMETERS: Homo sapiens, 24 h, read-out: Fold Change of Gigasomes Produced vs. DMSO

Here's what some known entries look like.
CC(=O)Nc1cccc(-n2c(=O)n(C3CC3)c(=O)c3c(Nc4ccc(I)cc4F)n(C)c(=O)c(C)c32)c1 [Trametinib, reference compound] | 2 to 3
CC1=NS(=O)(=O)c2cc(Cl)ccc2N1 [Diazoxide] | 1.25 to 1.5
O=c1ncn2nc(Sc3ccc(F)cc3F)ccc2c1-c1c(Cl)cccc1Cl [Neflamapimod] | 0.5 to 0.75
CCN(CCO)CCCC(C)Nc1ccnc2cc(Cl)ccc12 (stereo not shown) [Hydroxychloroquine] | 0.75 to 1
CC[C@H](CO)Nc1nc(NCc2ccccc2)c2ncn(C(C)C)c2n1 [Seliciclib] | 0.75 to 1
Cn1cnc(N)c2ncnc1-2 [Compound 3-Methyladenine, 3-Methyladenine] | 1.25 to 1.5

Return reported fold induction at 1 µM values for all items listed beneath this line.
1. CC(C)[C@H](O)C(=O)N[C@@H](C)C(=O)N[C@@H]1C(=O)N(C)CCc2ccccc21 [Semagacestat]
2. CN1C(=N)N[C@](C)(c2cc(NC(=O)c3ccc(F)cn3)ccc2F)CS1(=O)=O [Verubecestat]
3. CC(C)(O)c1coc(S(=O)(=O)NC(=O)Nc2c3c(cc4c2CCC4)CCC3)c1 [MCC950 sodium]
4. Cn1cncc1[C@@](N)(c1ccc(Cl)cc1)c1ccc2c(c1)c(-c1cccc(Cl)c1)cc(=O)n2C [Tipifarnib]
5. O=C(c1ccc2nccnc2c1)N1CCCCC1 [CX516]
6. C/C=C1/[C@H](O[C@@H]2O[C@H](CO)[C@@H](O)[C@H](O)[C@H]2O)OC=C(C(=O)OC)[C@H]1CC(=O)OCCc1ccc(O)c(O)c1 [Oleuropein, reference compound]
7. Cc1ncc(-c2ccnc(Nc3ccc(S(C)(=O)=O)cc3)n2)n1C(C)C [AZD-5438]

(A)
1: 0.5 to 0.75; 2: 0.5 to 0.75; 3: 0.5 to 0.75; 4: 1.75 to 2; 5: 1 to 1.25; 6: 0.75 to 1; 7: 1 to 1.25

// provenance: patent US20240400986A1
